# System: field corn (Zea mays L., var. Dekalb 535, CORN)
# Protocol Text: Post-emerge test, crop safety
# Type: in vivo
# Experimental Context: Rate 250 g ai/ha; rating scale 0-100 (0 no damage, 100 complete death); 14 days after application
Endpoint Label: Post-emerge phytotoxicity rating CORN (crop damage)
Please respond with just the number, no unit label.

Ask: Identify measured Post-emerge phytotoxicity rating CORN (crop damage) associated with CCOC(=O)C(Cl)Cc1c(C)c(Cl)cc(F)c1-n1c(=O)cc(C(F)(F)F)n(C)c1=O (stereo not drawn) [14-54]
Result: 15

Ask: Provide one value: measured Post-emerge phytotoxicity rating CORN (crop damage) of COc1c(Cl)cc(F)c(-n2c(=O)cc(C(F)(F)F)n(C)c2=O)c1CC(Cl)C(=O)OCCC#N (stereo not drawn) [14-29]
Result: 50

Ask: Read off the recorded Post-emerge phytotoxicity rating CORN (crop damage) for CCCCCOC(=O)C(Cl)Cc1c(OC)c(Cl)cc(F)c1-n1c(=O)cc(C(F)(F)F)n(C)c1=O (single isomer, unassigned) [14-11]
Result: 100

----------
Record form. Attribute: Pre-emerge crop damage CORN (phytotoxicity rating, scale 0-100). Fill in for each entry.
# System: field corn (Zea mays L., var. Dekalb 535, CORN)
# Protocol Text: Pre-emerge test, crop safety
# Assay type: in vivo
# Experimental Context: 63 g ai/ha; pre-emerge; rated 14 days after application; 0 = no damage, 100 = complete death
# Experimental: A standard greenhouse herbicide activity screening system was used to evaluate the herbicidal efficacy and crop safety of these test compounds. […] At 14 days after application of the test materials, phytotoxicity ratings were recorded. […]

Ask: Give the reported Pre-emerge crop damage CORN (phytotoxicity rating, scale 0-100) for this compound. `Cc1c(Cl)cc(F)c(-n2c(=O)cc(C(F)(F)F)n(C)c2=O)c1N`
Result: 15

Ask: Identify measured Pre-emerge crop damage CORN (phytotoxicity rating, scale 0-100) corresponding to `COc1c(Cl)cc(F)c(-n2c(=O)cc(C(F)(F)F)n(N)c2=O)c1N`
Result: 60

Ask: Indicate its recorded Pre-emerge crop damage CORN (phytotoxicity rating, scale 0-100); the compound in question is CCOC(=O)C(C)Nc1cc(OC(F)F)cc(F)c1-n1c(=O)cc(C(F)(F)F)n(C)c1=O (centres unmarked)
Result: 95

Ask: Fill in Pre-emerge crop damage CORN (phytotoxicity rating, scale 0-100) for record `Cn1c(C(F)(F)F)cc(=O)n(-c2c(F)cc(Cl)c(OCC#N)c2N)c1=O`
Result: 40

Ask: Query Pre-emerge crop damage CORN (phytotoxicity rating, scale 0-100) for `C=C(C)C(=O)N(C(=O)C(=C)C)c1c(OC)c(Cl)cc(F)c1-n1c(=O)cc(C(F)(F)F)n(C)c1=O`
Result: 0

Ask: Report Pre-emerge crop damage CORN (phytotoxicity rating, scale 0-100) for `Cn1c(C(F)(F)F)cc(=O)n(-c2c(F)cc(Cl)c(OCC#N)c2NC(=O)C(F)(F)F)c1=O`
Result: 0

Ask: Quote Pre-emerge crop damage CORN (phytotoxicity rating, scale 0-100) reported for `COc1c(Cl)cc(F)c(-n2c(=O)c(NC(=O)C(F)(F)F)c(C(F)(F)F)n(C)c2=O)c1NC(=O)C(F)(F)F` please.
Result: 0

Ask: // Input: `COc1c(Cl)cc(F)c(-n2c(=O)cc(C(F)(F)F)n(C)c2=O)c1NC(=O)c1cccc(C)c1` . Output its Pre-emerge crop damage CORN (phytotoxicity rating, scale 0-100) only.
Result: 60

----------
Exercise: for every item that follows, state its recorded Pre-emerge Herbicidal Activity ECHCG.
# Test system: barnyardgrass (Echinochloa crus-galli, ECHCG)
# Protocol Text: Pre-emerge test, greenhouse herbicide activity screening
# Assay type: in vivo
# Experimental Context: pre-emerge, rate 63 g ai/ha, phytotoxicity rating 0-100 at 14 days after application
No unit in the answer, please; the number alone is enough.

Ask: Give the reported Pre-emerge Herbicidal Activity ECHCG for this molecule. COc1c(Cl)cc(F)c(-n2nnn(CCCF)c2=O)c1NC(=O)COCc1ccccc1 [Compound 5-28]
Result: 30

Ask: Provide only the value of recorded Pre-emerge Herbicidal Activity ECHCG for Cc1c(Cl)cc(F)c(-n2c(=O)cc(C(F)(F)F)n(C)c2=O)c1NC(=O)OCc1ccc([N+](=O)[O-])cc1 [4-64]
Result: 30

Ask: Provide one value: measured Pre-emerge Herbicidal Activity ECHCG of Cc1c(Cl)cc(F)c(-n2c(=O)cc(C(F)(F)F)n(C)c2=O)c1NC(=O)OCCc1ccccc1 [4-57]
Result: 20

Ask: State its Pre-emerge Herbicidal Activity ECHCG for this molecule: Cc1cccc(C)c1OC(=O)Nc1c(C)c(Cl)cc(F)c1-n1c(=O)cc(C(F)(F)F)n(C)c1=O [4-55]
Result: 0

Ask: Return reported Pre-emerge Herbicidal Activity ECHCG. Input molecule: C#CCOc1c(Cl)cc(Cl)c(-n2nnn(CCCF)c2=O)c1N [Compound 5-15]
Result: 0

Ask: Query Pre-emerge Herbicidal Activity ECHCG for Cc1c(Cl)cc(F)c(-n2c(=O)cc(C(F)(F)F)n(C)c2=O)c1NC(=O)OCc1ccc(Cl)cc1Cl [4-62]
Result: 10

Ask: Given the molecule COc1c(Cl)cc(F)c(-n2nnn(CCCF)c2=O)c1NC(=O)c1ccc2ccccc2c1 [Compound 5-26] , write its reported Pre-emerge Herbicidal Activity ECHCG.
Result: 20

Ask: Return Pre-emerge Herbicidal Activity ECHCG for the following molecule: Cc1ccccc1COC(=O)Nc1c(C)c(Cl)cc(F)c1-n1c(=O)cc(C(F)(F)F)n(C)c1=O [4-56]
Result: 50

Ask: Give Pre-emerge Herbicidal Activity ECHCG for the following molecule: Nc1c(O)c(Cl)cc(F)c1N1C(=O)C2CCCCN2C1=S (single isomer, unassigned) [12-2]
Result: 40

Ask: Name the recorded Pre-emerge Herbicidal Activity ECHCG of the item O=C(Nc1cc(Cl)ccc1-n1c(=O)n2n(c1=S)CCCC2)c1ccc2ccccc2c1 [9-14] in your answer.
Result: 0

----------
# Test system: upland rice (Oryza sp., var. Tebonnet, RICE)
# Protocol Text: Pre-emerge test, crop safety
# Format: in vivo
# Experimental Context: crop damage, pre-emerge, rate 250 g ai/ha, phytotoxicity rating 0-100 at 14 days after application
Endpoint Label: Pre-emerge Herbicidal Activity RICE

Ask: Please indicate recorded Pre-emerge Herbicidal Activity RICE of `COc1c(Cl)cc(F)c(-n2ncc(C(F)(F)F)cc2=O)c1NC(=O)c1ccc2ccccc2c1` measured with upland rice (Oryza sp., var. Tebonnet, RICE).
Result: 50

Ask: Report its Pre-emerge Herbicidal Activity RICE with upland rice (Oryza sp., var. Tebonnet, RICE) as the test system: `CCC(=O)Nc1c(Cl)cc(Cl)c(-n2nc(C)n(C(F)F)c2=O)c1N`
Result: 0

Ask: GET Pre-emerge Herbicidal Activity RICE | system: upland rice (Oryza sp., var. Tebonnet, RICE) | item: `Nc1c(OC2CCCC2)c(Cl)cc(F)c1N1C(=O)C2=C(CCCC2)C1=O`
Result: 0

Ask: Write down measured Pre-emerge Herbicidal Activity RICE (upland rice (Oryza sp., var. Tebonnet, RICE)) for this compound. `Cc1cccc(C)c1OC(=O)Nc1c(C)c(Cl)cc(F)c1-n1c(=O)cc(C(F)(F)F)n(C)c1=O`
Result: 60

----------
# Test system: lambsquarters (Chenopodium album, CHEAL)
# Protocol Text: Pre-emerge test, greenhouse herbicide activity screening
# Format: in vivo
# Experimental Context: Chenopodium album, pre-emergence, 336 h; pre-emerge, rate 250 g ai/ha, phytotoxicity rating 0-100 at 14 days after application; read-out: Pre-emerge Herbicidal Activity CHEAL
# Method: A standard greenhouse herbicide activity screening system was used to evaluate the herbicidal efficacy and crop safety of these test compounds. […] At 14 days after application of the test materials, phytotoxicity ratings were recorded. […]
Endpoint Label: pest or weed control at 250 g/ha (%)
Answer in %, number only, no unit symbol.

Ask: Using lambsquarters (Chenopodium album, CHEAL) as the test system, report measured pest or weed control at 250 g/ha of `Cc1nn(-c2c(Cl)cc(Cl)c(N)c2N)c(=O)n1C(F)F` .
Result: 30

Ask: Give the observed pest or weed control at 250 g/ha of `COc1c(Cl)cc(F)c(-c2nn(C)c(C(F)(F)F)c2Cl)c1NC(=O)c1ccc2ccccc2c1` for lambsquarters (Chenopodium album, CHEAL).
Result: 100

Ask: # return pest or weed control at 250 g/ha for `COc1c(Cl)cc(F)c(-c2nn(C)c(C(F)(F)F)c2Cl)c1N` , test system: lambsquarters (Chenopodium album, CHEAL)
Result: 100

Ask: Check lambsquarters (Chenopodium album, CHEAL) data and give pest or weed control at 250 g/ha for `Cc1nn(-c2c(F)cc(Cl)cc2NC(=O)c2ccc3ccccc3c2)c(=O)n1C(F)F` .
Result: 90

Ask: Check lambsquarters (Chenopodium album, CHEAL) data and give pest or weed control at 250 g/ha for `Cc1nn(-c2c(Cl)cc(Cl)cc2NC(=O)c2ccc3ccccc3c2)c(=O)n1C(F)F` .
Result: 100
